Biological target: SIK1 (Homo sapiens)
Sequence (P57059 whole entry): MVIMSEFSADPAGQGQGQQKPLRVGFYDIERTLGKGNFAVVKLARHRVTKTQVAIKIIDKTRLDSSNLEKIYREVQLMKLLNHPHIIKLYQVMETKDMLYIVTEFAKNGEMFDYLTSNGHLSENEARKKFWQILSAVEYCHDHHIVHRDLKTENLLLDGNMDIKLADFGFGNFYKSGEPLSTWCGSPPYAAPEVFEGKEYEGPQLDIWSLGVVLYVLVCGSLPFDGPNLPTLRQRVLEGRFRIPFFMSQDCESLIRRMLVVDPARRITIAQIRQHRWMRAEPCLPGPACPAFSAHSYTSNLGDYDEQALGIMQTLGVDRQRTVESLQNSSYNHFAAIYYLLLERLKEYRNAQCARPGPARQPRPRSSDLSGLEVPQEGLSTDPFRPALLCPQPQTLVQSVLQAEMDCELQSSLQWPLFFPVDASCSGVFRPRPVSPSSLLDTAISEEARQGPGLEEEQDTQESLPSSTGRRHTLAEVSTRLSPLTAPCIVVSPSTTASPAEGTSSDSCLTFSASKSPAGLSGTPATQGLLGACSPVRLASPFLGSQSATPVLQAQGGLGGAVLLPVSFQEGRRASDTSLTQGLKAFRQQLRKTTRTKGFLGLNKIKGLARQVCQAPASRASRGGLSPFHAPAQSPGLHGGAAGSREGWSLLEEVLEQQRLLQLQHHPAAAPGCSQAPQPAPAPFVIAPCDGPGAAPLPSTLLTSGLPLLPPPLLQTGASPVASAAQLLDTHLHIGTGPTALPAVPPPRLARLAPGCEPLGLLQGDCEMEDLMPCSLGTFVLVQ
Test: SIK1 kinase assay, IMAP fluorescence polarization
Assay type: biochemical
Settings: 50 or 100 μM ATP; average; read-out: SIK1-AVERAGE Ki
readoutType: Ki (µM)

{"columns": ["sampleSmiles", "assayedTarget", "readoutType", "reading"],
 "data": [
  ["Cc1cccc(F)c1N1Cc2cnc(N)nc2N([C@@H]2CCN(C)C2)C1=O", "SIK1 (Homo sapiens)", "Ki", 0.00828],
  ["Cc1cccc(F)c1N1Cc2cnc(N)nc2N(C2CN(C)C2)C1=O", "SIK1 (Homo sapiens)", "Ki", 0.0474],
  ["Cc1cccc(Cl)c1N1Cc2cnc(N)nc2N(C2CN(C)C2)C1=O", "SIK1 (Homo sapiens)", "Ki", 0.0286],
  ["Cc1cccc(F)c1N1Cc2cnc(N)nc2N([C@H]2CC[C@@H](N)CC2)C1=O", "SIK1 (Homo sapiens)", "Ki", 0.00108],
  ["Cc1cccc(F)c1N1Cc2cnc(N(C)C)cc2N([C@H]2CC[C@@H](N(C)C)CC2)C1=O", "SIK1 (Homo sapiens)", "Ki", 0.479]
]}

---

Molecular target: SIK2 (Homo sapiens)
Sequence (Q9H0K1 whole entry): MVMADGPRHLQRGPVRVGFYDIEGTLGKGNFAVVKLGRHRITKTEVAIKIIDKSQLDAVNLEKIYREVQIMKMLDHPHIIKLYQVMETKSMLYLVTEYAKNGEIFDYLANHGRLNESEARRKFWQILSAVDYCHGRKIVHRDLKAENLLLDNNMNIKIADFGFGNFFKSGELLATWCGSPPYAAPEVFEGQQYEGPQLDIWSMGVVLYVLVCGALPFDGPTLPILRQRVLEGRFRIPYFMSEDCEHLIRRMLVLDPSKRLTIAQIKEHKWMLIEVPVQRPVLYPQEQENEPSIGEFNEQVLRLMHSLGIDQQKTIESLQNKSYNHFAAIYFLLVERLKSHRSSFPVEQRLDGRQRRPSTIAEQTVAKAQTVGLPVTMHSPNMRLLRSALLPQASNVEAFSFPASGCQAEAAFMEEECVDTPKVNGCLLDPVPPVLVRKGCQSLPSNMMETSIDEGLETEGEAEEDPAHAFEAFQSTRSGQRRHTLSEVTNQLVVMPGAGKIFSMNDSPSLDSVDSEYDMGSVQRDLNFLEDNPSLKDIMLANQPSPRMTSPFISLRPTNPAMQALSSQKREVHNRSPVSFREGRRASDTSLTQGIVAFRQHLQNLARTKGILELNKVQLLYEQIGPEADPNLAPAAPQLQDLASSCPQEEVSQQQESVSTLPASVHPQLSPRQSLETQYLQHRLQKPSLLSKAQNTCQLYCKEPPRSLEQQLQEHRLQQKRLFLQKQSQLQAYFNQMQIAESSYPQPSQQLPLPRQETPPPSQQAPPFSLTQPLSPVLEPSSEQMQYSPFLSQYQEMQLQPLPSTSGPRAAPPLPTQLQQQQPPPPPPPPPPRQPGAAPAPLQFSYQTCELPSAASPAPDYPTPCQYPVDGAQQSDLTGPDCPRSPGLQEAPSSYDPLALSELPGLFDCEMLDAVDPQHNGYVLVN
Assay: SIK2 kinase assay, IMAP fluorescence polarization
Assay type: biochemical
Conditions: 50 or 100 μM ATP; average; read-out: SIK2-AVERAGE Ki
pKi: −log10 of the molar value.
readoutType: pKi

{"columns": ["sampleSmiles", "reading"],
 "data": [
  ["Cc1cccc(F)c1N1Cc2cnc(N)cc2N([C@@H]2CCN(C)C2)C1=O", 8.67],
  ["Cc1cccc(F)c1N1Cc2cnc(N)nc2N([C@H]2CCCN(C)CC2)C1=O", 9.42],
  ["Cc1cccc(F)c1N1Cc2cnc(N)cc2N([C@@H]2CCCNCC2)C1=O", 9.74],
  ["Cc1cccc(F)c1N1Cc2cnc(N)nc2N([C@H]2CCCCN(C)C2)C1=O", 9.17],
  ["Cc1cccc(F)c1N1Cc2cnc(N)cc2N([C@H]2CCCN(C)CC2)C1=O", 9.23],
  ["CNc1cc2c(cn1)CN(c1c(C)cccc1F)C(=O)N2C1CN(C)C1", 7.83],
  ["Cc1cccc(F)c1N1Cc2cnc(N)nc2N([C@H]2CC[C@@H](N)CC2)C1=O", 9.45],
  ["Cc1cccc(F)c1N1Cc2cnc(N)cc2N(CC2CCNCC2)C1=O", 9.79],
  ["Cc1cccc(F)c1N1Cc2cnc(N)nc2N([C@H]2CCCN(C)C2)C1=O", 9.15]
]}

---

Attribute: pKi
Molecular target: EPHA2 (Homo sapiens, UniProt P29317)
Sequence (P29317 24-976): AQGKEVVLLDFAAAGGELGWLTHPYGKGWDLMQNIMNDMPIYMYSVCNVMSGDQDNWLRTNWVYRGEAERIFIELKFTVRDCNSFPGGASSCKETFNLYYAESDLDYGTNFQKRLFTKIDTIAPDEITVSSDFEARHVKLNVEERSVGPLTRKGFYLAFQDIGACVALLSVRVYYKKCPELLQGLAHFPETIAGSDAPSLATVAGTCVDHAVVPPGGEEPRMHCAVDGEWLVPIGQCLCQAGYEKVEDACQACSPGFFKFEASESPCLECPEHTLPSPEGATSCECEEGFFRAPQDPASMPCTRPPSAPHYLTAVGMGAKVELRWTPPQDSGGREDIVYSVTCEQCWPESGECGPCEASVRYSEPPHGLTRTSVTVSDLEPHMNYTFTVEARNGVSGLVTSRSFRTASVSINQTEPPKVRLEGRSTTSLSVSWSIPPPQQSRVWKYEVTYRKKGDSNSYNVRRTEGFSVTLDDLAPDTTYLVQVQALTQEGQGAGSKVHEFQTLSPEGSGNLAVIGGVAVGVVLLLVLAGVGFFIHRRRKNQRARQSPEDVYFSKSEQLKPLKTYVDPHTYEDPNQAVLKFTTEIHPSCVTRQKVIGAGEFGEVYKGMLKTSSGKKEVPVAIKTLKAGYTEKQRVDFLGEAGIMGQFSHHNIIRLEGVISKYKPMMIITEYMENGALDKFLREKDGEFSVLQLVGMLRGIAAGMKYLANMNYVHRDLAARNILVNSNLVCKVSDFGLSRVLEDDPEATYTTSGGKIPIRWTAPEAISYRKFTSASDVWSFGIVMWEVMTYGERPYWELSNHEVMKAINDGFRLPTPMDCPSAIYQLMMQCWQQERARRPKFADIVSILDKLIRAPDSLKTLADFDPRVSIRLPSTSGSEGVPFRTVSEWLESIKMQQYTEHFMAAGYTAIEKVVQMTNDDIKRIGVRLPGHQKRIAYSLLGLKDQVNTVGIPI
Experiment: EPHA2 kinase assay, IMAP fluorescence polarization
Assay type: biochemical
pKi: −log10 of the molar value.

{"columns": ["compound", "signQualifier", "pKi"],
 "data": [
  ["Cc1cccc(F)c1N1Cc2cnc(N)cc2N([C@@H]2CCCNC2)C1=O [Example 48]", "=", 7.16],
  ["Cc1cccc(F)c1N1Cc2cnc(N)cc2N([C@H]2CCCNC2)C1=O [Example 49]", "<", 6.00],
  ["Cc1cccc(F)c1N1Cc2cnc(N)cc2N([C@H]2CCN(C)C2)C1=O [Example 79]", "=", 6.79],
  ["Cc1cccc(F)c1N1Cc2cnc(N)nc2N([C@H]2CCCN(C)CC2)C1=O [Example 35]", "=", 7.41],
  ["Cc1cccc(Cl)c1N1Cc2cnc(N)cc2N(C2CN(C)C2)C1=O [Example 9]", "=", 6.76],
  ["Cc1cccc(F)c1N1Cc2cnc(N)nc2N([C@H]2CCN(C)C2)C1=O [Example 30]", "=", 7.11],
  ["Cc1cccc(F)c1N1Cc2cnc(N)nc2N([C@@H]2CCN(C)C2)C1=O [Example 31]", "=", 6.64],
  ["Cc1cccc(F)c1N1Cc2cnc(N)nc2N([C@@H]2CCCN(C)CC2)C1=O [Example 34]", "=", 7.53],
  ["Cc1cccc(F)c1N1Cc2cnc(N)cc2N(C2CNC2)C1=O [Example 4]", "=", 6.65],
  ["Cc1cccc(Cl)c1N1Cc2cnc(N)cc2N(C2CNC2)C1=O [Example 8]", "=", 6.83],
  ["Cc1cccc(F)c1N1Cc2cnc(N)cc2N([C@@H]2CCN(C)C2)C1=O [Example 80]", "=", 6.53]
]}
